- Tested on: A549 human lung cancer cells
- PROCEDURE_DETAILS: cell viability assay (MTT)
- Assay type: cell-based
- RECORDED_CONDITIONS: 125 µg/mL, 24 h, read-out: Validity (%) for sample concentrations (µg/mL) 125
- Experimental: WI-38 normal lung fibroblast cells, A549 lung cancer cells, and MDA-MB-231 breast cancer cells were obtained from VACSERA—Cell Culture Unit, Cairo, Egypt. The cell lines were originally obtained from the American Tissue Culture Collection (ATCC). […] Cell viability was then assessed using the MTT assay (Sigma Aldrich, St. Louis, MO, USA), and the absorbance was read at 570 nm using an ELISA microplate reader (Molecular Devices, Downingtown, PA, USA).
Checkbox rule: viability at 125 µg/mL lower than 70% = 1 (yes); viability at 125 µg/mL not lower than 70% = 0 (no).

{"COMPOUND": "COc1ccc(C2SCC(=O)N2c2nc(-c3cc(Cl)cc4c3-c3ccc(Cl)cc3C4)cs2)cc1 (centres unmarked) [5b]", "CAT": "1 (yes)"}
{"COMPOUND": "O=C1CSC(c2ccc([N+](=O)[O-])cc2)N1c1nc(-c2cc(Cl)cc3c2-c2ccc(Cl)cc2C3)cs1 (centres unmarked) [5f]", "CAT": "0 (no)"}
{"COMPOUND": "O=C1C(Cl)C(c2ccco2)N1c1nc(-c2cc(Cl)cc3c2-c2ccc(Cl)cc2C3)cs1 (centres unmarked) [6j]", "CAT": "1 (yes)"}

Kindly consider the entry below.
Prompt: I wonder whether O=C1C(Cl)C(C=Cc2ccccc2)N1c1nc(-c2cc(Cl)cc3c2-c2ccc(Cl)cc2C3)cs1 (centres unmarked) [6i] has viability at 125 µg/mL below 70%. Can you tell?
Completion: 0 (no)

----------
Entries annotated with measured melting point

Please review the following examples before continuing.
{"COMPOUND": "O=C1CSC(c2ccc(Cl)cc2)N1c1nc(-c2cc(Cl)cc3c2-c2ccc(Cl)cc2C3)cs1 (stereo not drawn)", "REPORTED_PROPERTY": "melting point", "EXPERIMENTAL_RESULT": "83 to 85 °C"}
{"COMPOUND": "COc1ccc(C2SCC(=O)N2c2nc(-c3cc(Cl)cc4c3-c3ccc(Cl)cc3C4)cs2)cc1 (stereo not drawn)", "REPORTED_PROPERTY": "melting point", "EXPERIMENTAL_RESULT": "74 to 76 °C"}
{"COMPOUND": "O=C(O)c1ccc(C2C(Cl)C(=O)N2c2nc(-c3cc(Cl)cc4c3-c3ccc(Cl)cc3C4)cs2)cc1 (stereo not drawn)", "REPORTED_PROPERTY": "melting point", "EXPERIMENTAL_RESULT": "125 to 127 °C"}
{"COMPOUND": "COc1cc(C2SCC(=O)N2c2nc(-c3cc(Cl)cc4c3-c3ccc(Cl)cc3C4)cs2)ccc1O (stereo not drawn)", "REPORTED_PROPERTY": "melting point", "EXPERIMENTAL_RESULT": "85 to 87 °C"}
{"COMPOUND": "CN(C)c1ccc(C2C(Cl)C(=O)N2c2nc(-c3cc(Cl)cc4c3-c3ccc(Cl)cc3C4)cs2)cc1 (stereo not drawn)", "REPORTED_PROPERTY": "melting point", "EXPERIMENTAL_RESULT": "110 to 111 °C"}
{"COMPOUND": "O=C1CSC(c2ccnc3ccccc23)N1c1nc(-c2cc(Cl)cc3c2-c2ccc(Cl)cc2C3)cs1 (stereo not drawn)", "REPORTED_PROPERTY": "melting point", "EXPERIMENTAL_RESULT": "204 to 206 °C"}
{"COMPOUND": "O=C1C(Cl)C(c2ccccc2)N1c1nc(-c2cc(Cl)cc3c2-c2ccc(Cl)cc2C3)cs1 (stereo not drawn)", "REPORTED_PROPERTY": "melting point", "EXPERIMENTAL_RESULT": "118 to 120 °C"}
{"COMPOUND": "O=C1CSC(c2ccccc2)N1c1nc(-c2cc(Cl)cc3c2-c2ccc(Cl)cc2C3)cs1 (stereo not drawn)", "REPORTED_PROPERTY": "melting point", "EXPERIMENTAL_RESULT": "79 to 82 °C"}

Here is the next item to consider.
So, O=C1C(Cl)C(c2ccc([N+](=O)[O-])cc2)N1c1nc(-c2cc(Cl)cc3c2-c2ccc(Cl)cc2C3)cs1 (stereo not drawn) ? Its melting point was 114 to 116 °C
